Procedure Details: Liver Microsome Stability Assay (rat)
Applied Conditions: rat liver microsomes, with NADPH, 1.0 uM compound
Measurement Name: Liver Microsome Stability (Multiple Species): Rat - % Remaining after 30 min w/NADPH (%)

1. CC(C)(C)c1nc(/C=C/c2csc(NC(=O)c3cccn3Cc3ccncc3)n2)co1 : 2.95

[P] O=C(Nc1nc([C@H]2CCCN2c2ncccn2)cs1)c1cccn1Cc1ccncc1
[Q] N#Cc1cc(C(=O)Nc2nc([C@H]3CCCN3c3ccccc3)cs2)n(Cc2ccnc(F)c2)c1
Compare P and Q and name the one whose reported Liver Microsome Stability (Multiple Species): Rat - % Remaining after 30 min w/NADPH is smaller. The response must carry the label of the picked entry. P
(P: 0.55%, Q: 17.1%)

---

Procedure Details: Liver Microsome Stability Assay (human)
Applied Conditions: human liver microsomes, with NADPH, 1.0 uM compound
Measurement Name: Liver Microsome Stability (Multiple Species): Human - % Remaining after 30 min w/NADPH (%)

Solved cases below.
1) Cc1cc(/C=C/c2csc(NC(=O)c3cccn3Cc3ccnc(F)c3)n2)no1 [Compound B88] : 15.6
2) O=C(Nc1nc(/C=C/c2ncoc2C2CCCCC2)cs1)c1cccn1Cc1ccncc1 [Compound B52] : 5.82
3) O=C(Nc1ccc(N2CCC[C@@H]2c2csc(NC(=O)c3cccn3Cc3ccnc(F)c3)n2)cc1)OC1CNC1 [Compound A178] : 72.8
4) O=C(Nc1nc([C@H]2CCCN2c2ccc(CO)cc2)cs1)c1cccn1Cc1ccncc1 [Compound A57] : 26.6
5) CCOC(=O)C(C)n1cnc(/C=C/c2csc(NC(=O)c3cccn3Cc3ccnc(F)c3)n2)c1C (centres unmarked) [Compound B119] : 0.15
6) CC(C)c1ccc(/C=C/c2csc(NC(=O)c3cccn3CC3CCOCC3)n2)nc1 [Compound D6] : 0.03
7) O=C(O)CCCn1cccc1C(=O)Nc1nc([C@H]2CCCN2c2ccccc2)cs1 [Compound C13] : 82.1
8) CC(C)n1cc(/C=C/c2csc(NC(=O)c3cccn3Cc3ccnc(F)c3)n2)nc1C#N [Compound B93] : 0.85

[a] CC(=O)N1CCC(n2cnc(/C=C/c3csc(NC(=O)c4cccn4Cc4ccnc(F)c4)n3)c2)CC1 [Compound B91]
[b] O=C(Nc1nc(/C=C/c2cn3ccccc3n2)cs1)c1cccn1Cc1ccncc1 [Compound B50]
[c] CC(=O)N[C@H](C)c1ccc(N2CCC[C@@H]2c2csc(NC(=O)c3cccn3Cc3ccncc3)n2)cc1 [Compound A66]
[d] O=C(NC1=NC(/C=C/c2ccccc2)CS1)c1cccn1Cc1ccncc1 (centres unmarked) [Compound E51]
Your job: order these 4 records by Liver Microsome Stability (Multiple Species): Human - % Remaining after 30 min w/NADPH, ascending. Hello, could you send the labels back in the order asked? Thank you. d, a, b, c
(d: 0.01%, a: 0.22%, b: 1.21%, c: 2.98%)

[A] CC(C)n1ccnc1/C=C/c1csc(NC(=O)c2cccn2Cc2ccnc(F)c2)n1 [Compound B95]
[B] C[C@H](CC#N)Cn1cccc1C(=O)Nc1nc([C@H]2CCCN2c2ccccc2)cs1 [Compound C88]
Compare A and B and name the one whose reported Liver Microsome Stability (Multiple Species): Human - % Remaining after 30 min w/NADPH is smaller. The response must carry the label of the picked entry. A

[A] O=C(Nc1nc(/C=C/c2cnccn2)cs1)c1cccn1Cc1ccncc1 [Compound B43]
[B] CN1CCC(Oc2ccc(N3CCC[C@@H]3c3csc(NC(=O)c4cccn4Cc4ccncc4)n3)cc2)CC1 [Compound A8]
[C] CC(=O)N1CCC(Oc2ccc(N3CCC[C@@H]3c3csc(NC(=O)c4cccn4Cc4ccnc(F)c4)n3)c(C#N)c2)CC1 [Compound A133]
[D] O=C(Nc1nc(/C=C/[C@@H]2CCCCN2)cs1)c1cccn1Cc1ccncc1 [Compound E18]
[E] N#CCC1(Cn2cccc2C(=O)Nc2nc([C@H]3CCCN3c3ccccc3)cs2)CC1 [Compound C8]
Parameters: sort_field (Liver Microsome Stability (Multiple Species): Human - % Remaining after 30 min w/NADPH), sort_dir (desc). Hello, could you send the labels back in the order asked? Thank you. E, B, A, C, D

[1] O=C(Nc1nc(C2C3CN(c4ccccc4)CC32)cs1)c1cccn1Cc1ccncc1 (centres unmarked) [Compound E36]
[2] O=C(Nc1nc([C@H]2CCCN2c2ccccc2)cs1)c1cccn1CC1=CCOCC1 [Compound C57]
[3] O=C(Nc1nc([C@H]2CCCN2c2ccccc2)cs1)c1cccn1CCCC1CCOC1 (some centres unmarked) [Compound C92]
Parameters: sort_field (Liver Microsome Stability (Multiple Species): Human - % Remaining after 30 min w/NADPH), sort_dir (desc). Hello, could you send the labels back in the order asked? Thank you. 3, 2, 1
